Biological target: K103NNY181C mutant reverse transcriptase (Human immunodeficiency virus type 1 group M subtype B, UniProt P04585, K690N/Y768C)
Construct: mutations that occur in the reverse transcriptase segment of the pol gene
Assay: Reverse transcriptase enzymatic assay (PicoGreen), K103N/Y181C mutant RT
Format: biochemical, HIV-1
Conditions: IC50 mut, mutant reverse transcriptase, enzymatic assay of Example 24
Checkbox rule: IC50 lower than 70 nM = Satisfied; IC50 not lower than 70 nM = Not satisfied.

Ask: Field: below-cutoff. Rule: recorded IC50 strictly less than 70 nM. Subject: CC(C)(C)c1ccc(-n2nnnc2SCC(=O)Nc2ccc(OCCN3CCCCC3)cc2Cl)c(Cl)c1
Result: Not satisfied

Ask: Field: below-cutoff. Rule: recorded IC50 strictly less than 70 nM. Subject: CNC(=O)NS(=O)(=O)c1ccc(NC(=O)CSc2nnnn2-c2ccc(C3CC3)cc2Cl)c(Cl)c1
Result: Not satisfied

Ask: Field: below-cutoff. Rule: recorded IC50 strictly less than 70 nM. Subject: CC(C)(C)c1ccc(-n2nnnc2SCC(=O)Nc2ccc(OCCN3CCOCC3)cc2Cl)c(Cl)c1
Result: Not satisfied

Ask: Field: below-cutoff. Rule: recorded IC50 strictly less than 70 nM. Subject: Cc1nnc(SCC(=O)Nc2ccc(-c3ccc(OCCN4CCCCC4)cc3)cc2Cl)n1-c1ccc(C2CC2)cc1Cl
Result: Not satisfied

Ask: Field: below-cutoff. Rule: recorded IC50 strictly less than 70 nM. Subject: CC(C)(C)c1ccc(-n2nnnc2SCC(=O)Nc2ccc(-c3ccc(OCCN4CCC(O)CC4)cc3)cc2Cl)c(Cl)c1
Result: Satisfied

Ask: Field: below-cutoff. Rule: recorded IC50 strictly less than 70 nM. Subject: CC(C)(C)c1ccc(-n2nnnc2SCC(=O)Nc2ccc(S(=O)(=O)NCc3ccccc3)cc2Cl)c(Cl)c1
Result: Not satisfied

Ask: Field: below-cutoff. Rule: recorded IC50 strictly less than 70 nM. Subject: CC(C)(C)c1ccc(-n2nnnc2SCC(=O)Nc2ccc(OCC(=O)NN3CCOCC3)cc2Cl)c(Cl)c1
Result: Not satisfied

Ask: Field: below-cutoff. Rule: recorded IC50 strictly less than 70 nM. Subject: Cc1cc(C)c(-n2nnnc2SCC(=O)Nc2ccc(-c3ccc(C(C)(C)C(=O)O)cc3)cc2Cl)c(Cl)c1
Result: Satisfied

Ask: Field: below-cutoff. Rule: recorded IC50 strictly less than 70 nM. Subject: CCNC(=O)c1ccc(NC(=O)CSc2nnnn2-c2ccc(C)cc2Cl)c(Cl)c1
Result: Not satisfied

Ask: Field: below-cutoff. Rule: recorded IC50 strictly less than 70 nM. Subject: CC(C)(C)c1ccc(-n2nnnc2SCC(=O)Nc2ccc(OCC(=O)N3CCC(C(=O)O)CC3)cc2Cl)c(Cl)c1
Result: Satisfied

Ask: Field: below-cutoff. Rule: recorded IC50 strictly less than 70 nM. Subject: CC(C)(C)c1ccc(-n2nnnc2SCC(=O)Nc2ccc(C(=O)NCCc3ccc(O)c(O)c3)cc2Cl)c(Cl)c1
Result: Satisfied

Ask: Field: below-cutoff. Rule: recorded IC50 strictly less than 70 nM. Subject: Cc1ccc(-n2nncc2SCC(=O)Nc2ccc(-c3ccc(CC(=O)O)cc3)cc2Cl)c(Cl)c1
Result: Not satisfied

Ask: Field: below-cutoff. Rule: recorded IC50 strictly less than 70 nM. Subject: CC(C)(C)c1ccc(-n2nnnc2SCC(=O)Nc2ccc(OCC(=O)Nc3ccccc3O)cc2Cl)c(Cl)c1
Result: Not satisfied

Ask: Field: below-cutoff. Rule: recorded IC50 strictly less than 70 nM. Subject: Cc1ccc(-c2c(OCC(=O)Nc3ccc(C#CC(C)(C)O)cc3Cl)n[nH]c2C)c(Cl)c1
Result: Satisfied

Ask: Field: below-cutoff. Rule: recorded IC50 strictly less than 70 nM. Subject: COC(=O)Cc1cccc(-c2ccc(NC(=O)CSc3nnnn3-c3ccc(C)cc3Cl)c(Cl)c2)c1
Result: Not satisfied

Ask: Field: below-cutoff. Rule: recorded IC50 strictly less than 70 nM. Subject: CC(C)c1ccc(-n2nnnc2SCC(=O)Nc2ccc(-c3ccc(OCCN4CCCC4)cc3)cc2Cl)c(Br)c1
Result: Satisfied

Ask: Field: below-cutoff. Rule: recorded IC50 strictly less than 70 nM. Subject: CC(C)(C)c1ccc(-n2nnnc2SCC(=O)Nc2ccc(-c3ccc(/C=C/C(=O)O)s3)cc2Cl)c(Cl)c1
Result: Satisfied

Ask: Field: below-cutoff. Rule: recorded IC50 strictly less than 70 nM. Subject: CN(C)c1ccc(NC(=O)c2ccc(NC(=O)CSc3nnnn3-c3ccc(C(C)(C)C)cc3Cl)c(Cl)c2)cc1
Result: Satisfied

Ask: Field: below-cutoff. Rule: recorded IC50 strictly less than 70 nM. Subject: CC(CC(=O)O)NC(=O)c1ccc(NC(=O)CSc2nnnn2-c2ccc(C(C)(C)C)cc2Cl)c(Cl)c1 (stereo not drawn)
Result: Satisfied

Ask: Field: below-cutoff. Rule: recorded IC50 strictly less than 70 nM. Subject: Cc1ccc(-c2c(OCC(=O)Nc3ccc(C#CC(C)(C)C(=O)O)cc3Cl)n[nH]c2C)c(Cl)c1
Result: Satisfied

Ask: Field: below-cutoff. Rule: recorded IC50 strictly less than 70 nM. Subject: CC(C)(COc1ccc(NC(=O)CSc2nnnn2-c2ccc(C3CC3)cc2Cl)c(Cl)c1)C(=O)O
Result: Not satisfied
